System: LOX IMVI melanoma
Experiment: NCI tumour cell line growth inhibition, 48 h
recordedMetric: TGI

// solved cases for TGI follow
| compound | TGI |
| --- | --- |
| COc1ccc(-c2cc(=O)c3cc4c(cc3[nH]2)OCO4)cc1OC | > 100 µM |
| O=C1CC2(c3ccccc3)ON=C(c3ccccc3)N2c2ccccc2N1 (stereo not drawn) | > 100 µM |

With those in mind, consider the next compound.
Specify measured TGI for O=C(CC(c1ccccc1)c1c(O)c2ccccc2oc1=O)c1ccccc1 (stereo not drawn) . > 100 µM

====

System: SW-620 colon
Assay: NCI tumour cell line growth inhibition, 48 h
recordedMetric: TGI

// solved cases for TGI follow
| compound | recordedMetric | result |
| --- | --- | --- |
| COC(=O)/C=C\n1c(C)cc(=O)[nH]c1=O | TGI | > 100 µM |
| Nc1ncnc2c1nnn2C1C=CC(COS(N)(=O)=O)C1 (stereo unspecified) | TGI | > 100 µM |
| COC(=O)[C@@H](C)C[C@H](Cc1ccccc1)NC(=O)c1csc(CC[C@H](C(C)C)N(C)C(=O)[C@@H](NC(=O)[C@H]2CCCCN2C)C(C)C)n1 | TGI | > 33.3 µM |

Specify measured TGI for OCc1ccc(-c2ccc(-c3ccc(CO)o3)[se]2)o1 . > 100 µM

Specify measured TGI for CCC(CON(C)c1ccccc1)(SC)SC . > 100 µM

Specify measured TGI for COc1cccc(-c2nc3sccn3c2-c2ccnc(NCCCNS(=O)(=O)c3cccc(F)c3)c2)c1 . > 100 µM
